assayed system: Human α4β2 (Homo sapiens, UniProt P17787+P43681)
Sequence (P43681 29-627 limits assumed): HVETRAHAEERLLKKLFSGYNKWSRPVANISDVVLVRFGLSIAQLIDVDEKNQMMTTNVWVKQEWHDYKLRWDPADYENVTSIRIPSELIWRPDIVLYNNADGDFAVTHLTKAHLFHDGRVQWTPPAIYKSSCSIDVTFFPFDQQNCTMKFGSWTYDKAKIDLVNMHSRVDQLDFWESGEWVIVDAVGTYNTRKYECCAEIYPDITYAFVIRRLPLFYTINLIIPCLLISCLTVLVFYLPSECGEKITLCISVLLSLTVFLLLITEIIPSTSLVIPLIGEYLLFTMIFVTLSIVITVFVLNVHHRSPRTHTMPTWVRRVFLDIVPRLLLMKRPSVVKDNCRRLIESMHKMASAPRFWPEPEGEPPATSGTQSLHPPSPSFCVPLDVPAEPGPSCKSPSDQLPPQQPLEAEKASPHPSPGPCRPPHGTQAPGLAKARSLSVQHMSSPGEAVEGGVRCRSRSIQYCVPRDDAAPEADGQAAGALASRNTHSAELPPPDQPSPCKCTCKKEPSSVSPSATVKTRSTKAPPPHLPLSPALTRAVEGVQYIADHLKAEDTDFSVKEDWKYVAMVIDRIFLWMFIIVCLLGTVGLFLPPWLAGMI
Sequence (P17787 26-502): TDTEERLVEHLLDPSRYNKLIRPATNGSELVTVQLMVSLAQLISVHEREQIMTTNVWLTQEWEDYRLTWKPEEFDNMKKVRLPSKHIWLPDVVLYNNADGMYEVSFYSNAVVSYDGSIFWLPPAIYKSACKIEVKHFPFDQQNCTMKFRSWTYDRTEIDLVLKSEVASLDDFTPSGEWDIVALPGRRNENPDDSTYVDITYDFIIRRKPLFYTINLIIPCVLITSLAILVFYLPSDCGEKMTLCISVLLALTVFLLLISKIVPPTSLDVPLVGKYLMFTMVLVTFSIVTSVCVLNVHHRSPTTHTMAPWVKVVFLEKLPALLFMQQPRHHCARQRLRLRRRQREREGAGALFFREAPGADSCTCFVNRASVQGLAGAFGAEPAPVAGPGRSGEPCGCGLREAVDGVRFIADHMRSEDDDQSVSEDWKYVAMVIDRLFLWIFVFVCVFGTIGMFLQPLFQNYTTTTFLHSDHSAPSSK
protocol text: Binding to human α4β2 NNR (Ki)
endpoint name: pKi
pKi is defined as minus the log10 of a concentration measured in mol/L.

Using the record for c1cncc(N2CCC3(CCCN3)C2)c1 (racemic) , report its pKi.
7.47

---

protocol text: Single rising dose (SRD) study of Compound C, plasma pharmacokinetics of racemate and enantiomers
Format: in vivo
run conditions: human, po; 400 mg Compound C (n = 4); plasma
Reported Cmax values for a set of molecules
Express the result in ng/mL but write the number alone.

{"molecule": "c1cncc(N2CC[C@]3(CCCN3)C2)c1", "Cmax (ng/mL)": 163}
{"molecule": "c1cncc(N2CC[C@@]3(CCCN3)C2)c1", "Cmax (ng/mL)": 158}

Now for another entry.
Using the record for c1cncc(N2CCC3(CCCN3)C2)c1 (racemic) , report its Cmax.
295
